- ASSAY NOTES: in vitro
- APPLIED CONDITIONS: human
Entries and their CC50
READOUT KIND: CC50

| COMPOUND | READOUT KIND | RESULT |
| --- | --- | --- |
| O=C(NN1C(=O)[C@@H]2[C@@H]3C=C[C@@H]([C@H]4C[C@@H]34)[C@@H]2C1=O)c1ccc(C(F)(F)F)cc1 [ST-246, reference compound] | CC50 | > 100 µM |
| [N-]=[N+]=NC1(CO)OC(n2ccc(N)nc2=O)C(F)C1O (centres unmarked) | CC50 | > 10 µM |
